Listed here: items and their measured apparent KD of MS2 coat protein.
Tested on: MS2 coat protein
Test: apparent KD of MS2 coat protein; higher = weaker reporter binding
Conditions: Eterna round: R107; input ligand: theophylline 20 uM

Here's what some known entries look like.
UAUCCACAUGAGGAUCACCCAUGUUAGGAAGGAGCGGUGGAUGCACCAGGUAGGUCGCCUAGCUGAGGACUGUCGGUGGAUUCGU [Exclusion - Arginine A (Freestyle 21)] :: 0.0921 µM
AUAUUAAUCGGAAGGAGCGGUACAUGAGGAUCACCCAUGUGCGAAGCCAGCAGAUCCCGUUACCAGGUAGGUCGCCGAGUUAUGA [Begebe] :: 0.0398 µM
GUACAUGAGGAUCACCCAUGUAUAGUUGAAGGAGCGACCGGAGGGUCAGGUAGGUCGCAGCACAUGGCGUCAACCCGUGUAUGCC [#1 Exclusion - Arginine A Attempt #25 (Inspired by Pi)] :: 0.0227 µM

# input sequence: `UGUAUGGACUGAAGGAGCGGGUAAUAAACCUGAGGAUCACCCAGGUAAUAGGCGAAAGCCACCCAGGUAGGUCGCAGUCCAUACU` ; wanted: its apparent KD of MS2 coat protein
0.0161 µM

Also need UAGCGAUCUCGUUAAAGGAUCCCAUUUGAUACCAGAGAACUUUGCCUCCCUUGGCAGCAAGUGACAUGAGGAUCACCCAUGUUGA [theeternabot_exclusion_MS2_Theo_A_3] , thanks.
0.02 µM

Also need AGACAUGAGGAUCACCCAUGUAGCACGGAUACCAGAUCCAGAUUUAUCCCUUGGCAGCUGUGGUACAGCGUUGCAACGCUCCUAG [Exclusion - Theophylline A (Freestyle 16)] , thanks.
0.0232 µM

Also need AAAAUCCUACUUGAGGAUCACCCAGGUGAAGGAGCGCCCGAAAGGGCAGGUAGGUCGCACCUGAGGAUCACCCUGGUAACCUAAA [ArgEX 9 #DoubleMS2 #OpenEnded] , thanks.
0.171 µM

Also need UGCAUUAUACAUGGAUCACCCAUGUAGACACGAGGACCGGUACGGCCGCCACUCGGAAGAGGGAACAUGAGGAUCACCCAUGUGA [Try A SS t1] , thanks.
0.0731 µM
